Reference for the values: ChEMBL document CHEMBL1141248

- System: A549
- Assay Details: Cytotoxicity against human A549 cells after 2 days
- Format: functional, cell-based
- Stated Conditions: A549, 48 h
Measurement Type: EC50 (µg/mL)

>>> meas_value("C[C@@H]1CC[C@@]2(OC1)O[C@H]1C[C@H]3[C@@H]4CC[C@H]5C[C@@H](O[C@@H]6O[C@H](CO[C@@H]7OC[C@H](O)[C@H](O)[C@H]7O)[C@@H](O)[C@H](O)[C@H]6O)CC[C@]5(C)[C@H]4CC(=O)[C@]3(C)[C@H]1[C@@H]2C [FILIASPAROSIDE B]")
16.4
>>> meas_value("C[C@@H]1CC[C@@]2(OC1)O[C@H]1C[C@H]3[C@@H]4CC[C@H]5C[C@@H](O[C@@H]6O[C@H](CO[C@@H]7OC[C@H](O)[C@H](O)[C@H]7O)[C@@H](O[C@@H]7OC[C@@H](O)[C@H](O)[C@H]7O)[C@H](O)[C@H]6O)CC[C@]5(C)[C@H]4CC(=O)[C@]3(C)[C@H]1[C@@H]2C [FILIASPAROSIDE A]")
13.3
>>> meas_value("C[C@H]1CC[C@@]2(OC1)O[C@H]1C[C@H]3[C@@H]4CC[C@@H]5C[C@@H](O[C@@H]6O[C@H](CO[C@@H]7OC[C@H](O)[C@H](O)[C@H]7O)[C@@H](O)[C@H](O)[C@H]6O)CC[C@]5(C)[C@H]4CC[C@]3(C)[C@H]1[C@@H]2C [FILIASPAROSIDE D]")
2.4
>>> meas_value("COc1cc([C@@H]2c3cc4c(cc3[C@@H](O[C@@H]3O[C@@H]5CO[C@@H](C)O[C@H]5[C@H](O)[C@H]3O)[C@H]3COC(=O)[C@H]23)OCO4)cc(OC)c1O [ETOPOSIDE]")
0.8
>>> meas_value("C[C@H]1CC[C@@]2(OC1)O[C@H]1C[C@H]3[C@@H]4CC[C@@H]5C[C@@H](O[C@@H]6O[C@H](CO)[C@@H](O[C@@H]7OC[C@@H](O)[C@H](O)[C@H]7O)[C@H](O)[C@H]6O)CC[C@]5(C)[C@H]4CC[C@]3(C)[C@H]1[C@@H]2C [ASPAFILIOSIDE A]")
9.4
>>> meas_value("C[C@H]1CC[C@@]2(OC1)O[C@H]1C[C@H]3[C@@H]4CC[C@@H]5C[C@@H](O[C@@H]6O[C@H](CO)[C@@H](O[C@@H]7O[C@@H](C)[C@H](O)[C@@H](O)[C@H]7O)[C@H](O)[C@H]6O[C@H]6OC[C@H](O)[C@@H](O)[C@@H]6O)CC[C@]5(C)[C@H]4CC[C@]3(C)[C@H]1[C@@H]2C")
2.3
